TARGET OR TEST SYSTEM: T1, SARS-CoV-2 Delta Variant RBD (SARS-CoV-2 Delta variant)
T1 construct: domain: RBD; coated on ELISA plates
ASSAY NOTES: ELISA, RBD coated
Parameter pEC50: see the listing below.
Interpret pEC50 as the negative base-10 log of the concentration measured in mol/L.

Recorded results for 5 binders are shown here.
# BINDER, MEASURED PARAMETER, READOUT NUMBER
measured = [
    ("PP1103 MBP-5HVZ-PAPA-RN-18-H6 (VHH, Form: Dimer) VHH: QVQLVESGGGLVQPGGSLRLSCAASGYYFQIVAMHWYRQAPGKEREGVAGITSTGSTYYGDSVKGRFTISRDNAKNTVYLQMNSLKPEDTAVYYCNAVSTDAQGAAEYWGQGTQVTVSS", "pEC50", 8.57),
    ("PP906 MBP-5HVZ-S1b-E7-H6 (VHH, Form: Dimer) VHH: QVQLVESGGGLVQPGGSLRLSCAASGGEFSDNGLHWFRQAPGKQREFVATASSDGSTQYRDSVKGRFTISRDNAKNTVYLQMNSLKPEDTAVYYCTALLMSSAGEYDVWGQGTQVTVSS", "pEC50", 6.69),
    ("PP1154 MBP-5HVZ-PAPA-R5d-G1-H6 (VHH, Form: Dimer) VHH: QVQLVESGGGLVQPGGSLRLSCAASGSIFGINDVHWFRQAPGKEREFVATITNGLSARYKDSVKGRFTISRDNAKNTVYLQMNSLKPEDTAVYYCAAQVYITTYELYDYWGQGTQVTVSS", "pEC50", 6.66),
    ("PP1097 MBP-5HVZ-PAPA-RN-5-H6 (VHH) VHH: QVQLVESGGGLVQPGGSLRLSCAASGSSFRILAMHWYRQAPGKNREWVAVITSNGNTYYADSVKGRFTISRDNAKNTVYLQMNSLKPEDTAVYYCNADTLDLDDGATYNYWGQGTQVTVSS", "pEC50", 6.61),
    ("PP1150 MBP-5HVZ-PAPA-R5b-G1-H6 (VHH, Form: Dimer) VHH: QVQLVESGGGLVQPGGSLRLSCAASGSIGQIVLVHWFRQAPGKQRELVAGITSPSSTYYADSVKGRFTISRDNAKNTVYLQMNSLKPEDTAVYYCNTELEGKTQGFTGKTVWYDYWGQGTQVTVSS", "pEC50", 9.07),
]

## Input Consider the binder shown here: PP1109 MBP-5HVZ-PAPA-RN-25-H6 (VHH, Form: Dimer) VHH: QVQLVESGGGLVQPGGSLRLSCAASGEDYSYNAAHWFRQAPGKEREWVAAINSGGGTYYADSVKGRFTISRDNAKNTVYLQMNSLKPEDTAVYYCAYLGALDRDGYDAWGQGTQVTVSS What is its recorded pEC50?
## Output 6.94

## Input Also PP915 MBP-5HVZ-S3b-A7-H6 (VHH, Form: Dimer) VHH: QVQLVESGGGLVQPGGSLRLSCAASGSIASINAIHWVRQAPGKQREEVAAITSGGSTGYADSVKGRFTISRDNAKNTVYLQMNSLKPEDTAVYYCAAQPGQSYAVWGQGTQVTVSS ?
## Output 7.42

## Input Also PP1176 MBP-5HVZ-PAPA-R2a-F3-H6 (VHH, Form: Dimer) VHH: QVQLVESGGGLVQPGGSLRLSCAASGSITSINWMHWFRQAPGKDREGVASISQTGRGSYADSVKGRFTISRDNAKNTVYLQMNSLKPEDTAVYYCAAASRTGTPYNYWGQGTQVTVSS ?
## Output 8.57
